Measured values drawn from patent US8372967B2 for this set.

Test system: rat DGAT2 mRNA
EXPERIMENTAL PROTOCOL: Dose-dependent inhibition of DGAT2 in A10 cells (Tables 82, 83)
Format: cell-based
SETUP CONDITIONS: 150 nM (Table 83)
Strand notation (5' to 3'): a small letter for the sugar, then the base; units joined by * are phosphorothioate-linked, units joined directly phosphodiester-linked; [ ] holds rarer units or linkages, { } end groups; capitals alone tell only the bases. e = 2'-O-(2-methoxyethyl) (MOE); [5mC] = 5-methylcytosine; d = 2'-deoxy (DNA)
Quick rule for you: percent inhibition of rat DGAT2 at 50% or higher means 1, lower means -1.

* 372594 (antisense eA*e[5mC]*dA*dG*dA*dA*dG*dG*d[5mC]*dA*d[5mC]*d[5mC]*e[5mC]*eA) [compound 372594] | -1
* 372586 (antisense eG*eT*dT*d[5mC]*d[5mC]*dT*dG*dG*dT*dG*dG*dT*e[5mC]*eA) [compound 372586] | 1
* 372501 (antisense eT*eT*eG*dT*dG*dT*dG*dT*d[5mC]*dT*dT*d[5mC]*dA*e[5mC]*e[5mC]*eA) [compound 372501] | 1
* 372578 (antisense eT*eG*dT*dG*dT*d[5mC]*dT*dT*d[5mC]*dA*d[5mC]*d[5mC]*eA*eG) [compound 372578] | -1
* 372524 (antisense eG*e[5mC]*e[5mC]*dA*dG*dG*d[5mC]*dA*dT*dG*dG*dA*dG*e[5mC]*eT*e[5mC]) [compound 372524] | 1
* 372563 (antisense eA*eG*d[5mC]*d[5mC]*dA*dG*dG*dT*dG*dA*d[5mC]*dA*eG*eA) [compound 372563] | -1
